Origin of measurements: patent US11957680B2

- TARGET: wild type PKR (Homo sapiens, UniProt P30613)
- Sequence (P30613 whole entry): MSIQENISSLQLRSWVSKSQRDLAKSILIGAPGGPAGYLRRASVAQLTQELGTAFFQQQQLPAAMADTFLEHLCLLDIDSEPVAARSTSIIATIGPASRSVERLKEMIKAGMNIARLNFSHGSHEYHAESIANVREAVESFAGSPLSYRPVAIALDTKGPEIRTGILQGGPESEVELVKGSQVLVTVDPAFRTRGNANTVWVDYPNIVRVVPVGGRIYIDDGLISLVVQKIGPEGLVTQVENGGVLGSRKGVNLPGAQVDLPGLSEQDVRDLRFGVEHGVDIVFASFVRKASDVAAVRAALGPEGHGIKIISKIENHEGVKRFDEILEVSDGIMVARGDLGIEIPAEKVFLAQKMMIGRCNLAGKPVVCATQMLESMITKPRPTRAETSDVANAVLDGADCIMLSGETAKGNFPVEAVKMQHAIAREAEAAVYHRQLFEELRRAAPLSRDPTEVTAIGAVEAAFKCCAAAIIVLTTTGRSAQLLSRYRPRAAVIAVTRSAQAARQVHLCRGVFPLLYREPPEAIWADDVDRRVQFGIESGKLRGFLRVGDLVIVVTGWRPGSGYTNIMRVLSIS
- TEST DETAILS: Cell based ATP assay in purified red blood cells (Cell-Titer-Glo)
- Design: endogenous in cells; host or cells: purified red blood cells from healthy volunteers
- TEST PARAMETERS: Table 2; RBCs, overnight at 37° C., ATP levels
RESULT TYPE: AC50

Cn1c2nc(Cc3cccc4cn[nH]c34)sc2c2cnn(Cc3cccc4[nH]ncc34)c(=O)c21 :: ≤ 1 µM
CNc1ccc(Cn2ncc3c4sc(C)nc4n(C)c3c2=O)cc1 :: > 1 µM
Cc1nc2c(s1)c1cnn(Cc3ccc4[nH]cnc4c3)c(=O)c1n2C :: > 1 µM
Cn1c2nc(Cc3cc[nH]n3)sc2c2cnn(Cc3cccc4[nH]ncc34)c(=O)c21 :: ≤ 1 µM

*Q* Provide measured AC50 value, entry: CCOC(=O)c1scnc1Cc1nc2c(s1)c1cnn(Cc3cccc4[nH]ncc34)c(=O)c1n2C
*A* ≤ 1 µM

*Q* Provide measured AC50 value, entry: Cn1c2nc(SCc3ccccc3)sc2c2cnn(Cc3cccc4[nH]ncc34)c(=O)c21
*A* > 1 µM

*Q* Provide measured AC50 value, entry: COc1cccc(Cn2ncc3c4sc([S+]([O-])c5ccccc5)nc4n(C)c3c2=O)c1 (centres unmarked)
*A* > 1 µM

*Q* Provide measured AC50 value, entry: Cn1c2nc([S+](C)[O-])sc2c2cnn(Cc3cccc4c3CCN4)c(=O)c21 (centres unmarked)
*A* ≤ 1 µM
